- experimentalProtocol: Drug level in CD-1 mouse brain at 10 mg/kg, po measured at 1 hr post dose
- Assay type: ADME, organism-based
- assaySetup: read-out: Ct
readoutType: concentration at 1 h (ng/g)
I only need the number, in ng/g, no unit after it.

// recorded concentration at 1 h for `COc1cnc(C(=O)Nc2ccc(F)c([C@]3(C)Cn4nc(C#N)cc4C(N)=N3)c2)cn1` : 621

====

- experimentalProtocol: AUC (0 to infinity) in mouse at 0.28 mg/kg, iv
- Assay type: ADME, organism-based
- Parameters: time infinity, route intravenous, dose 0.28 mg/kg
- assaySetup: in vivo
readoutType: AUC
Dear colleague, please send the value followed by its unit.

The compound identified as `COc1cnc(C(=O)Nc2ccc(F)c([C@]3(C)Cn4nc(C#N)cc4C(N)=N3)c2)cn1` registered its AUC at 206 ng·h/mL

====

- experimentalProtocol: Ratio of unbound drug concentration in brain to blood in CD-1 mouse at 10 mg/kg, po measured at 2 hr post dose
- Assay type: ADME, organism-based
readoutType: Kp uu at 2 h
Please reply with the value in numeric form only.

Looking up `COc1cnc(C(=O)Nc2ccc(F)c([C@]3(C)Cn4nc(C#N)cc4C(N)=N3)c2)cn1` , I found its Kp uu at 2 h recorded as 0.29

====

- experimentalProtocol: Total plasma concentration in Beagle dog at 2.5 mg/kg, po
- Type: ADME, organism-based, Canis lupus familiaris
- assaySetup: in vivo
readoutType: concentration (nM)
Provide the reading as a plain figure in nM.

The reported value for `C[C@@]1(c2cc(NC(=O)c3ccc(C#N)cn3)ccc2F)Cn2c(C#N)cnc2C(N)=N1` in terms of concentration is 72

====

- experimentalProtocol: Tmax in dog at 2.5 mg/kg, po
- Type: ADME, organism-based, Canis lupus familiaris
- assaySetup: in vivo
readoutType: Tmax
Please don't drop the unit; write it after the number.

Lab note: measured Tmax of `COc1cnc(C(=O)Nc2ccc(F)c([C@]3(C)Cn4nc(C#N)cc4C(N)=N3)c2)cn1` was 2.3 h

====

- experimentalProtocol: Free drug concentration in mouse plasma measured after 4.5 hrs by HPLC-MS/MS method
- Type: ADME, cell-free
readoutType: fraction unbound at 4.5 h
Could you keep your reply to the number by itself?

`COc1cnc(C(=O)Nc2ccc(F)c([C@]3(C)Cn4nc(C#N)cc4C(N)=N3)c2)cn1` yielded fraction unbound at 4.5 h of 0.05

Recorded fraction unbound at 4.5 h (compound `C[C@@]1(c2cc(NC(=O)c3ccc(C#N)cn3)ccc2F)Cn2c(C#N)cnc2C(N)=N1` ): 0.06

====

- testedOn: hERG (KCNH2) (Homo sapiens, UniProt Q12809)
- Sequence (Q12809 whole entry): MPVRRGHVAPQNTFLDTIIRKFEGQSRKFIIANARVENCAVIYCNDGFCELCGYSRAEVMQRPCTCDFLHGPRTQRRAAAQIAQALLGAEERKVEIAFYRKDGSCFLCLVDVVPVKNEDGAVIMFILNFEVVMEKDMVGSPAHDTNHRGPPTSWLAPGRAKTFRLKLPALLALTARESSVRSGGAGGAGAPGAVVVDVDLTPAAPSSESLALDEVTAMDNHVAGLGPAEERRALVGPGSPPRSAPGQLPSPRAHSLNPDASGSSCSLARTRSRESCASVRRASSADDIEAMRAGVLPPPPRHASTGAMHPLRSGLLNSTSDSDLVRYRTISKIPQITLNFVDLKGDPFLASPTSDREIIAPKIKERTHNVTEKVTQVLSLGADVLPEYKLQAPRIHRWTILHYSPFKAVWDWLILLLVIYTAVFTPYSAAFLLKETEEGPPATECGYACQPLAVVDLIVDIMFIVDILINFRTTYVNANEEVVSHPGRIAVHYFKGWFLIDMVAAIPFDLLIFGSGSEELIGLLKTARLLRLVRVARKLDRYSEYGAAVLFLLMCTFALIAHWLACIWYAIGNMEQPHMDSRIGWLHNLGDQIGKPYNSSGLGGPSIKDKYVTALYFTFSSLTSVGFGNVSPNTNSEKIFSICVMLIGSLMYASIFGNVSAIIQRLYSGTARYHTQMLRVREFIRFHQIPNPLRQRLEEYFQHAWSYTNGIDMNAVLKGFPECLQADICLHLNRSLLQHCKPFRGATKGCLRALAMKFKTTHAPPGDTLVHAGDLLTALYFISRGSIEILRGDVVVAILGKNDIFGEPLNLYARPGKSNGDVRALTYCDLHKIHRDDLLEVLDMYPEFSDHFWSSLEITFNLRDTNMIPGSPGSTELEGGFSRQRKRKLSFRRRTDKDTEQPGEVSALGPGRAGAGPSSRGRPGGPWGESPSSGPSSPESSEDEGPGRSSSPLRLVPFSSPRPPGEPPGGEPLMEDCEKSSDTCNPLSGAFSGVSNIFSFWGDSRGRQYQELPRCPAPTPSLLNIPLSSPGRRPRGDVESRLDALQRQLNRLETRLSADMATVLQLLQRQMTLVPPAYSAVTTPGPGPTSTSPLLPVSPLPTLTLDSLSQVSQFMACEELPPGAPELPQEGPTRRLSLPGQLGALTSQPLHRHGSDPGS
- experimentalProtocol: Inhibition of hERG expressed in HEK293 cells at 3 uM at -80 mV holding potential by automated patch-clamp method
- Assay type: toxicity, cell-based
- assaySetup: HEK293 cells expressing hERG
Provide the reported inhibition at 3 µM of each item.
State the answer as a number, implicitly in %.

compound `COc1cnc(C(=O)Nc2ccc(F)c([C@]3(C)Cn4nc(C#N)cc4C(N)=N3)c2)cn1` , inhibition at 3 µM observed: 48

Reported inhibition at 3 µM of `C[C@@]1(c2cc(NC(=O)c3ccc(C#N)cn3)ccc2F)Cn2nc(C#N)cc2C(N)=N1` : 71

What the record says about `C[C@@]1(c2cc(NC(=O)c3ccc(C#N)cn3)ccc2F)Cn2ccnc2C(N)=N1` : inhibition at 3 µM is 76

Reference for the values: ChEMBL document CHEMBL5038653
